target: Fatty Acid Binding Protein 4 (FABP4) (Homo sapiens, UniProt P15090); construct: purchased Cayman, Ann Arbor, Mich; test: FABP4 Inhibitor/Ligand Screening Kit (fluorescence); details: range across SRB Extracts 1 to 14; based on contribution across all actives; read-out: Predicted IC50
Sequence (P15090 whole entry, species assumed): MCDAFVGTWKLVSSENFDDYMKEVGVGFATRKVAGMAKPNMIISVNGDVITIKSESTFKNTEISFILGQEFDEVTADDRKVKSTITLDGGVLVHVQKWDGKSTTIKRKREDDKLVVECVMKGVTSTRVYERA
Measurement label: IC50

// solved cases for IC50 follow
compound=CCCCCCCCCCCC/C=C\CC/C=C\CC[C@@H](O)[C@H](O)CCCCCCCCCCC1=C[C@H](C)OC1=O result="17.4 to 69.5 µM"
compound=CCCCCCCCCCCCCCCCCCCCCCCCCCCCCCOC(=O)C=Cc1ccc(O)c(O)c1 result="7.99 to 101 µM"

Please look up its IC50: CCCCC/C=C\C/C=C\CCCCCCCC(=O)OCC(CO)OC(=O)CCCCCCC/C=C\C/C=C\CCCCC (centres unmarked)
4.89 to 56 µM

Please look up its IC50: C=C(CCC(C)C1CCC2(C)C3CCC4CC(O)CCC45CC35CCC12C)C(C)C (centres unmarked)
21.3 to 25.7 µM

Please look up its IC50: CCCCCCCCC=CCCCCCCCC1CC(O)C(=O)O1 (centres unmarked)
38.9 to 117 µM

Sourced from patent US20100015258A1
